- SUBJECT OF TEST: PARP1 (Homo sapiens, UniProt P09874)
- Sequence (P09874 whole entry): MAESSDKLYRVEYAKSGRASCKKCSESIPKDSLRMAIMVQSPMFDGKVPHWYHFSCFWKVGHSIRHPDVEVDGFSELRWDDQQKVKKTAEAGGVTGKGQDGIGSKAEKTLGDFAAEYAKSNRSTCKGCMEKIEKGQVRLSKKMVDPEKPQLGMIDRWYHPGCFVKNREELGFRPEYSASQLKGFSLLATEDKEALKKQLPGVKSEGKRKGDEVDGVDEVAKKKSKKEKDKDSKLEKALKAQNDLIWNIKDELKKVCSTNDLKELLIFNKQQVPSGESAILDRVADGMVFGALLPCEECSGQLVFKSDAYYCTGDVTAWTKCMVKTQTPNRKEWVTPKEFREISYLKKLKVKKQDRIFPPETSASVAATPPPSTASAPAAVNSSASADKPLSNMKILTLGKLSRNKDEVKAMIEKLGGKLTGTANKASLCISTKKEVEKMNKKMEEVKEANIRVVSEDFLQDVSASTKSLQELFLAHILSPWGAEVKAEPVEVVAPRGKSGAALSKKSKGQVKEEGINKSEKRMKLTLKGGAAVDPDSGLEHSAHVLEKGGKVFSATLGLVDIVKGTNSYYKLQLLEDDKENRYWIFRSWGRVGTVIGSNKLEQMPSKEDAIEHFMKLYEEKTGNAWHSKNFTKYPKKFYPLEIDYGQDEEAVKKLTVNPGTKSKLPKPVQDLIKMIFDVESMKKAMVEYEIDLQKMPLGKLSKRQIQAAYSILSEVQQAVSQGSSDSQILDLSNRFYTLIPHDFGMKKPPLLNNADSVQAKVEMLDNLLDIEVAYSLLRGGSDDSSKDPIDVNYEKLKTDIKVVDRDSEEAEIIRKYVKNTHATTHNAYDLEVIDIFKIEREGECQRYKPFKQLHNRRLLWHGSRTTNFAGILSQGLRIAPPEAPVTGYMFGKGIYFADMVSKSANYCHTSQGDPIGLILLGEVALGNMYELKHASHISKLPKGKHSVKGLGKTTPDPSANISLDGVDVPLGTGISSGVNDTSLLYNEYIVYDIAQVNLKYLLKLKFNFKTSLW
- ASSAY REMARKS: PARP1 biochemical DELFIA assay (auto-PARylation)
- STATED CONDITIONS: Table 1A
MEASUREMENT NAME: IC50

Field: example entries. Status: answers known.
                                   compound                       subject_of_test       assay_value
0  O=C(CN1CCCC1c1cc(C(F)(F)F)c(=O)[nH]n1)N1CCN(c2cnc(C(F)(F)F)cn2)CC1 (single isomer, unassigned) [Compound 45a]  PARP1 (Homo sapiens, UniProt P09874)      10 to 100 nM
1  O=C(CN1CCCC1c1cc(C(F)(F)F)c(=O)[nH]n1)N1CCN(c2ncc(F)cn2)CC1 (single isomer, unassigned) [Compound 43b]  PARP1 (Homo sapiens, UniProt P09874)  1000 to 10000 nM

I'd like to know its IC50. The compound in question is CCc1[nH]c(=O)c(C(F)(F)F)cc1C1CCCN1CC(=O)N1CCN(c2ncc(C(F)(F)F)cn2)CC1 (single isomer, unassigned) [Compound 105a]
1000 to 10000 nM

If you can, please state the reported IC50 value of O=C(CN1Cc2ccccc2C1c1cc(C(F)(F)F)c(=O)[nH]n1)N1CC(Oc2ncc(C(F)(F)F)cn2)C1 (single isomer, unassigned) [Compound 114b] .
1000 to 10000 nM

IC50 lookup needed for CC(C)(C)c1cnc(N2CCN(C(=O)CN3CCCC3c3cc(C(F)(F)F)c(=O)[nH]n3)CC2)nc1 (single isomer, unassigned) [Compound 82a] , thanks.
10 to 100 nM

* * *

- SUBJECT OF TEST: UniProtKB P09874
- ASSAY REMARKS: PARP1 biochemical DELFIA assay (auto-PARylation)
- STATED CONDITIONS: Table 1A
MEASUREMENT NAME: IC50

For orientation, consider the following solved cases.
                                   compound  measurement_name       assay_value
0  O=C(CN1CCCC1c1c[nH]c(=O)c(C(F)(F)F)n1)N1CCN(c2ncc(C(F)(F)F)cn2)CC1 (single isomer, unassigned) [Compound 84b]              IC50  1000 to 10000 nM
1  O=C(CN1CCCC1c1cc(C(F)(F)F)c(=O)[nH]n1)N1CCC2(CC1)CN(c1ncc(C(F)(F)F)cn1)C2 (single isomer, unassigned) [Compound 101b]              IC50    100 to 1000 nM

# context switch: different compound, same IC50
Which measured IC50 value corresponds to O=C(CN1CCCC1c1cc(C(F)(F)F)c(=O)[nH]n1)N1CC2(C1)CN(c1ncc(C(F)(F)F)cn1)C2 (single isomer, unassigned) [Compound 106b] ?
1000 to 10000 nM

* * *

Recorded IC50, one value per entry.
- SUBJECT OF TEST: PARP1 (Homo sapiens, UniProt P09874)
- ASSAY REMARKS: PARP1 biochemical DELFIA assay (auto-PARylation)
- STATED CONDITIONS: Table 1A

Use the examples below as a reference point.
>>> df
                                   compound       assay_value
0  O=C(CN1CCCC1c1cc(C(F)(F)F)c(=O)[nH]n1)N1CCN(c2ccc(C(F)(F)F)cn2)CC1 (single isomer, unassigned) [Compound 42b]      10 to 100 nM
1  CN(C(=O)CN1CCCC1c1cc(C(F)(F)F)c(=O)[nH]n1)C1CCN(c2ncc(C(F)(F)F)cn2)CC1 (single isomer, unassigned) [Compound 34b]  1000 to 10000 nM

API: the following record is the query input.
Recorded IC50 for O=C(CN1CCCC1c1cc(C(F)(F)F)c(=O)[nH]n1)N1CCN(c2ncc(C3CC3)cn2)CC1 (single isomer, unassigned) [Compound 69a] with PARP1 (Homo sapiens, UniProt P09874), please?
10 to 100 nM
